test details: in vitro
Assay type: in vitro ADME
measurement conditions: PAMPA, pH 7.4, 400 μM, pH 7.4, 24 hours, room temperature; read-out: PAMPA Permeability Coefficient (×10^6)
For each of the molecules below, state its Papp at 24 h, 400 µM.
Write the number in ×10⁻⁶ cm/s without appending the unit.

Which Papp at 24 h, 400 µM is listed for Cc1noc(C23CNCC2C3)n1 (racemic) ?
4.49

Same for [2H]C1([2H])NC([2H])([2H])C2(c3nc(C)no3)CC12 (stereo not drawn)
3.46

Same for [2H]C1([2H])NC[C@]2(c3nc(C)no3)C[C@H]12 [Compound 122b]
3.7

All figures here come from patent US9403806B1.
